Data origin, for the record: paper PMC4780864

target: AAK1 (Homo sapiens); experiment: biochemical; set-up: kinase domain; Thermal shift assay (DSF, SYPRO Orange), 2 uM kinase domain, mean delta Tm of triplicates versus DMSO; details: read-out: AAK1
ENDPOINT_NAME: ΔTm at 12.5 µM (°C)
// units = °C; emit number, no label

>>> quantitative_result("Cc1ccc(-n2nc(C(C)(C)C)cc2NC(=O)Nc2ccc(OCCN3CCOCC3)c3ccccc23)cc1 [Doramapimod]")
-0.103

Note to self: ΔTm at 12.5 µM recorded for COc1ccc(-c2ccc3c(N4CCOC[C@@H]4C)nc(N4CCOC[C@@H]4C)nc3n2)cc1CO [AZD8055] was 0.04

Note to self: ΔTm at 12.5 µM recorded for Clc1ccc(Nc2nnc(Cc3ccncc3)c3ccccc23)cc1 [Vatalanib] was 0.303

Note to self: ΔTm at 12.5 µM recorded for Cc1c(CN2CCN(C(=O)[C@H](C)O)CC2)sc2c(N3CCOCC3)nc(-c3cnc(N)nc3)nc12 [Apitolisib] was 1.4

====

Biological target: AAK1 (Homo sapiens, UniProt Q2M2I8)
Sequence (Q2M2I8 27-365 limits assumed): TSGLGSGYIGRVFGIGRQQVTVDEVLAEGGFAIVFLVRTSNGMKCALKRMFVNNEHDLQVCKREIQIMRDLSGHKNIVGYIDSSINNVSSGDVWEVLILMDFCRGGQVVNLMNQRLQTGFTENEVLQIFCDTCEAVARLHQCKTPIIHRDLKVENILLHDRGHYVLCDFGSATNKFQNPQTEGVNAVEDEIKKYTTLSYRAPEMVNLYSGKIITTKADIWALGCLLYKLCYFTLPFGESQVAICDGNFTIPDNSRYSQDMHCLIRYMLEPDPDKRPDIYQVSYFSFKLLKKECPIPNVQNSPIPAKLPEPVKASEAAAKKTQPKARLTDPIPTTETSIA
Assay: biochemical
Set-up: kinase domain; Thermal shift assay (DSF, SYPRO Orange), 2 uM kinase domain, mean delta Tm of triplicates versus DMSO
Conditions: read-out: AAK1
Method: All measurements were performed in triplicate and mean values were reported for all compounds (Table S1). […] However, NAKs are often omitted from selectivity panels, including commercial screens.
# if value of ΔTm at 12.5 µM reaches 3 °C, tag yes (1); if it stays below, tag no (0)

Consider the following illustrative entries.
>>> assigned_class("C=CC(=O)N1CCC[C@@H](n2nc(-c3ccc(Oc4ccccc4)cc3)c3c(N)ncnc32)C1")
"no (0)"
>>> assigned_class("Cc1cnc(Nc2ccc(OCCN3CCCC3)cc2)nc1Nc1cccc(S(=O)(=O)NC(C)(C)C)c1")
"yes (1)"
>>> assigned_class("CC(C)n1nc(-c2ccc3oc(N)nc3c2)c2c(N)ncnc21")
"no (0)"
>>> assigned_class("C#Cc1cccc(Nc2ncnc3cc(OCCOC)c(OCCOC)cc23)c1")
"no (0)"

Here's the next entry for you.
Does ΔTm at 12.5 µM meet or surpass 3 °C for O=C1NC(=O)[C@@H](c2cn3c4c(cccc24)CCC3)[C@@H]1c1c[nH]c2ccccc12 [Tivantinib] ?
no (0)

====

Parameter ΔTm at 12.5 µM: see the listing below.
target: GAK (Homo sapiens, UniProt O14976); construct: catalytic domain-containing construct; test: biochemical; set-up: Thermal shift assay (DSF, SYPRO Orange), 2 uM kinase domain, mean delta Tm of triplicates versus DMSO; settings: read-out: GAK
// units = °C; emit number, no label

Note to self: ΔTm at 12.5 µM recorded for C[C@]12O[C@H](C[C@]1(O)CO)n1c3ccccc3c3c4c(c5c6ccccc6n2c5c31)CNC4=O [Lestaurtinib] was 10.8

Note to self: ΔTm at 12.5 µM recorded for O=C(Nc1ccc2[nH]nc(-c3ccncc3)c2c1)[C@@H]1CCN(CC(=O)N2CCN(c3ccc(-c4ncccn4)cc3)CC2)C1 [SCH772984] was 0.343

====

Parameter ΔTm at 12.5 µM: see the listing below.
target: AAK1 (Homo sapiens); assay: biochemical; set-up: kinase domain; Thermal shift assay (DSF, SYPRO Orange), 2 uM kinase domain, mean delta Tm of triplicates versus DMSO; conditions: read-out: AAK1
// units = °C; emit number, no label

>>> quantitative_result("COc1cc2nccc(Oc3ccc(NC(=O)NC4CC4)c(Cl)c3)c2cc1C(N)=O [Lenvatinib]")
2.07

# ΔTm at 12.5 µM measured on AAK1 (Homo sapiens) for item Cc1ccc(NC(=O)c2ccc(CN3CCN(C)CC3)cc2)cc1Nc1nc(-c2cccnc2)cs1 [Masitinib] = 0.547

# ΔTm at 12.5 µM measured on AAK1 (Homo sapiens) for item COc1cc(N2CCC(N3CCN(C)CC3)CC2)ccc1Nc1ncc(Cl)c(Nc2ccccc2P(C)(C)=O)n1 [AP26113] = 7.77

# ΔTm at 12.5 µM measured on AAK1 (Homo sapiens) for item COC(=O)c1ccc2c(c1)NC(=O)/C2=C(\Nc1ccc(N(C)C(=O)CN2CCN(C)CC2)cc1)c1ccccc1 [nintedanib] = 1.78

====

Parameter ΔTm at 12.5 µM: see the listing below.
target: AAK1 (Homo sapiens); test: biochemical; design: kinase domain; Thermal shift assay (DSF, SYPRO Orange), 2 uM kinase domain, mean delta Tm of triplicates versus DMSO; conditions: read-out: AAK1
// units = °C; emit number, no label

See these solved cases before continuing.
>>> quantitative_result("CCN1CCN(c2ccc(Nc3cc(N(C)C(=O)Nc4c(Cl)c(OC)cc(OC)c4Cl)ncn3)cc2)CC1")
0.41
>>> quantitative_result("Cc1c(Cn2c(C)nc3c(C(=O)O)cc(N4CCOCC4)cc32)cccc1C(F)(F)F")
0.317
>>> quantitative_result("Cn1c(=O)c(F)c(Nc2ccc(I)cc2F)c2c(=O)n(C[C@@H](O)CO)cnc21")
0.0367
>>> quantitative_result("Cc1ccc(F)c(NC(=O)Nc2ccc(-c3cccc4[nH]nc(N)c34)cc2)c1")
1.96
>>> quantitative_result("Cn1cc(-c2[nH]c3cc(NC(=O)[C@H](N)C4CCCCC4)cc4c3c2C=NNC4=O)cn1")
17.8

Note to self: ΔTm at 12.5 µM recorded for COc1cc2nccc(Oc3ccc(NC(=O)Nc4cc(C)on4)c(Cl)c3)c2cc1OC was 3.15

Note to self: ΔTm at 12.5 µM recorded for C#Cc1cccc(Nc2ncnc3cc4c(cc23)OCCOCCOCCO4)c1 was 2.56

Note to self: ΔTm at 12.5 µM recorded for O=C(Nc1cccc(Nc2ncc(Br)c(NCCc3cnc[nH]3)n2)c1)N1CCCC1 was 9.95

Note to self: ΔTm at 12.5 µM recorded for O=C(O)c1ccc(-c2c[nH]c3ncc(-c4ccccc4)cc23)cc1C1CCCC1 was 8.29

Note to self: ΔTm at 12.5 µM recorded for CCc1cnn2c(NCc3ccc[n+]([O-])c3)cc(N3CCCC[C@H]3CCO)nc12 was 0.23

====

biological target: GAK (Homo sapiens); construct: catalytic domain-containing construct; assay: biochemical; parameters: Thermal shift assay (DSF, SYPRO Orange), 2 uM kinase domain, mean delta Tm of triplicates versus DMSO; conditions: read-out: GAK
# if value of ΔTm at 12.5 µM reaches 3 °C, tag true; if it stays below, tag false

>>> assigned_class("CNC(=O)c1c(F)cccc1Nc1nc(Nc2cc3c(ccn3C(=O)CN(C)C)cc2OC)nc2[nH]ccc12 [GSK1838705A]")
"false"
>>> assigned_class("Cc1ccc(Nc2nccc(N(C)c3ccc4c(C)n(C)nc4c3)n2)cc1S(N)(=O)=O [Pazopanib]")
"false"
>>> assigned_class("COc1cc(O)c2c(c1)/C=C/C[C@H](O)[C@H](O)C(=O)/C=C\\C[C@H](C)OC2=O [(5Z)-7-oxozeaenol]")
"true"

Does ΔTm at 12.5 µM meet or surpass 3 °C for CCN1CCN(c2ccc(Nc3cc(N(C)C(=O)Nc4c(Cl)c(OC)cc(OC)c4Cl)ncn3)cc2)CC1 [NVP-BGJ398] ?
false

Does ΔTm at 12.5 µM meet or surpass 3 °C for Cc1cccc(-c2nn3c(c2-c2ccnc4ccc(C(N)=O)cc24)CCC3)n1 [Galunisertib] ?
true

Does ΔTm at 12.5 µM meet or surpass 3 °C for O=C(Nc1c[nH]nc1-c1nc2ccc(CN3CCOCC3)cc2[nH]1)NC1CC1 [AT9283] ?
true

Does ΔTm at 12.5 µM meet or surpass 3 °C for CC[C@@H]1C(=O)N(C)c2cnc(Nc3ccc(C(=O)N[C@H]4CC[C@H](N5CCN(CC6CC6)CC5)CC4)cc3OC)nc2N1C(C)C [Volasertib] ?
false

====

Parameter ΔTm at 12.5 µM: see the listing below.
Molecular target: GAK (Homo sapiens)
Construct: catalytic domain-containing construct
Sequence (O14976 1-1311): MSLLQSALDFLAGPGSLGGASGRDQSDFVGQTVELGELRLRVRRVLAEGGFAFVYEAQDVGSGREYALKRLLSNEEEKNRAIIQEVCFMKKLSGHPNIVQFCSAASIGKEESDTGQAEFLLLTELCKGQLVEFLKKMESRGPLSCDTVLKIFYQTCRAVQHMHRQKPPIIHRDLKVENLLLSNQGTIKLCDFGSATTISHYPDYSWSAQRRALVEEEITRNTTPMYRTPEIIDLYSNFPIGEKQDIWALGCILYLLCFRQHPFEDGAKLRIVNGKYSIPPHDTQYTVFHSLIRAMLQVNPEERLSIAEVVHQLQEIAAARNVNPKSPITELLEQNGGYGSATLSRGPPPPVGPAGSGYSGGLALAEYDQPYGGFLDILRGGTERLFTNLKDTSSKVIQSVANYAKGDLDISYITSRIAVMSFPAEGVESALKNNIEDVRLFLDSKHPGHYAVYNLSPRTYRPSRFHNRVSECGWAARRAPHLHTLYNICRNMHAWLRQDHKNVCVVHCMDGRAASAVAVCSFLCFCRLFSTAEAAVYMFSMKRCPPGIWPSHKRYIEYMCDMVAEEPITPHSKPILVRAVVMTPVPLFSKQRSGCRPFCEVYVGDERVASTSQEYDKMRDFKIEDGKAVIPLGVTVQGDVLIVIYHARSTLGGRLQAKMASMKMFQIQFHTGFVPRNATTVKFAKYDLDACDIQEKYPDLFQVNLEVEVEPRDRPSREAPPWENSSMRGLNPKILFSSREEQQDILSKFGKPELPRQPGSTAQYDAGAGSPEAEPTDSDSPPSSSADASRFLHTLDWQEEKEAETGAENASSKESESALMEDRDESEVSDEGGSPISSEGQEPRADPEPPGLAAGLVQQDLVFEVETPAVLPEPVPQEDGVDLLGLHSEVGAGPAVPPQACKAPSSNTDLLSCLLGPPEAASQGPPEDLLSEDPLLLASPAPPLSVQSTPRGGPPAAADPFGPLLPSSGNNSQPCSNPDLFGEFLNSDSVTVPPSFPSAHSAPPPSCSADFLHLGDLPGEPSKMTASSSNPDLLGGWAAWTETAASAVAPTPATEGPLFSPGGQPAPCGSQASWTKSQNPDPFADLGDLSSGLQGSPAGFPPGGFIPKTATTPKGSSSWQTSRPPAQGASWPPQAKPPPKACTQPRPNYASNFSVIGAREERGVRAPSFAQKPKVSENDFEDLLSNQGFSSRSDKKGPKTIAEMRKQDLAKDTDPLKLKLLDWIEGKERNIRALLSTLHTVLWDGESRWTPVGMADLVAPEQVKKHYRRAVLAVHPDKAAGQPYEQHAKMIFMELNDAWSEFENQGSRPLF
Experiment: biochemical
Design: Thermal shift assay (DSF, SYPRO Orange), 2 uM kinase domain, mean delta Tm of triplicates versus DMSO
Settings: read-out: GAK
// units = °C; emit number, no label

See these solved cases before continuing.
>>> quantitative_result("COc1cc2c(Oc3ccc(NC(=O)C4(C(=O)Nc5ccc(F)cc5)CC4)cc3F)ccnc2cc1OCCCN1CCOCC1 [Foretinib]")
2.36
>>> quantitative_result("CO[C@@H]1[C@H](N(C)C(=O)c2ccccc2)C[C@H]2O[C@]1(C)n1c3ccccc3c3c4c(c5c6ccccc6n2c5c31)C(=O)NC4 [Midostaurin]")
6.33
>>> quantitative_result("Cc1ccc(NC(=O)c2ccc(CN3CCN(C)CC3)cc2)cc1Nc1nc(-c2cccnc2)cs1 [Masitinib]")
1.98
>>> quantitative_result("C[C@@H]1CCN(C(=O)CC#N)C[C@@H]1N(C)c1ncnc2[nH]ccc12 [Tofacitinib]")
-0.58
>>> quantitative_result("CC(C)(C)c1cnc(CSc2cnc(NC(=O)C3CCNCC3)s2)o1 [SNS-032]")
0.0467

Now examine the next entry.
Note to self: ΔTm at 12.5 µM recorded for O=C(Cc1ccc(-c2ccc(OCCN3CCOCC3)cc2)cn1)NCc1ccccc1 [KX2-391] was 0.46
